Tested on: NCI-H522 lung
Experiment: NCI-60 one-dose screen, 48 h (100 = growth as untreated, 0 = no growth, -100 = all killed)
Settings: 10 µM
The panel holds about 83,000 compounds, 20% with a hit somewhere; the sample as a whole holds those more often.
measurementLabel: growth (%)
One number for each entry, in %.

Before answering, review these 6 worked examples.
[[record]]
compound = "COc1ccc(-c2nc(-c3ccccc3)c(-c3ccccc3)n2-c2ccc(S(=O)(=O)Nc3ncccn3)cc2)cc1OC"
system = "NCI-H522 lung"
unittext = "%"
valuereported = 89

[[record]]
compound = "COc1ccc(C(C)=C(c2ccc(OCCCN(C)C)cc2)c2ccc(OCCCN(C)C)cc2)cc1"
system = "NCI-H522 lung"
unittext = "%"
valuereported = -92.7

[[record]]
compound = "O=C(CSc1nnc(-c2ccc3nc(-c4ccccc4)[nH]c3c2)o1)Nc1ccc(Br)cc1"
system = "NCI-H522 lung"
unittext = "%"
valuereported = 61.2

[[record]]
compound = "O=C(c1ccc(Cl)cc1)C1[C@H](c2ccc(Br)cc2)[C@@H](c2ccccc2)NC12C(=O)Nc1ccc(Cl)cc12 (stereo partly drawn)"
system = "NCI-H522 lung"
unittext = "%"
valuereported = -79.5

[[record]]
compound = "O=C(Nc1ccc(I)cc1)Nc1nc2ccc([N+](=O)[O-])cc2s1"
system = "NCI-H522 lung"
unittext = "%"
valuereported = -89.4

[[record]]
compound = "N[C@@H](CSSC[C@H](N)C(=O)Nc1ccc(OCC2CCCC2)cc1)C(=O)Nc1ccc(OCC2CCCC2)cc1"
system = "NCI-H522 lung"
unittext = "%"
valuereported = -93.2


Quick one: give me growth for each item below, same order please.
1. COc1cc(/C=C/C(=O)c2ccc(NC(=O)CSc3nnc(-c4c[nH]c5ccccc45)n3-c3ccccc3)cc2)cc(OC)c1OC
2. CCOc1ccc(/C=N/NC(=O)Cn2nc(Cc3ccccc3)c3onc(C)c3c2=O)cc1

// result
1: 90.5; 2: 11.4

For every item in the list below, what is its measured growth?
1. O=C1NC(=NC2CCCCCC2)N/C1=C\c1ccc2ncoc2c1
2. O=c1oc2ccc(-c3ccc(F)cc3F)cc2c(=O)n1-c1ccc(F)c(Cl)c1
3. COc1ccsc1/C=N/NC(=O)c1[nH]c2ccc(Br)cc2c1-c1ccccc1

// result
[12.6, -17.7, -34.4]

Please state, for each entry, its recorded growth.
1. COc1ccc(/C=C/C(=O)c2ccc(N3CCN(C)CC3)cc2)c(C(F)(F)F)c1
2. Cc1noc2c(Cc3ccccc3)nn(CC(=O)N/N=C/c3ccc(Cl)cc3)c(=O)c12
3. CN(C)c1nc(NCCNS(=O)(=O)c2ccc(C(=O)/C=C/c3ccccc3)cc2)nc(Nc2ccc(F)cc2)n1

// result
1. 52.8
2. 83.9
3. 61.6

Would you be so kind as to report growth for each listed record?
1. O=C(CS(=O)(=O)c1oc(-c2ccc(Cl)cc2)nc1S(=O)(=O)c1ccc(Cl)cc1)N1CCOCC1
2. O=C(Cc1ccc2c(c1)CN(C1CCC(=O)NC1=O)C2=O)NCc1cccc2ccccc12 (stereo not drawn)
3. N#Cc1ccc(NC(=O)CSc2ccc(-c3ccc(Br)cc3)nn2)cc1
4. COc1cc2c3c(n(CCCn4ccnc4)c(=O)c2cc1OC)-c1nc2c(cc1C3=O)OCO2

// result
1: -14.8; 2: -21.4; 3: 52; 4: 40.4
